Target: T1, His6-tagged BBRF2Δ (Epstein-Barr virus (human herpesvirus 4 strain M81)), P29882
T1 chain: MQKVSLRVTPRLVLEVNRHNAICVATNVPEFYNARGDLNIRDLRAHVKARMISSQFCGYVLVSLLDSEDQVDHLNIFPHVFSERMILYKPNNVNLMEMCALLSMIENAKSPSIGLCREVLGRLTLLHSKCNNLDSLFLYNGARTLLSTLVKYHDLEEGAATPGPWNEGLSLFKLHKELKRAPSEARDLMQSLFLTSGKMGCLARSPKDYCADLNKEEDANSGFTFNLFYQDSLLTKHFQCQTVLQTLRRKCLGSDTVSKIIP
Test: BLI
observable: Kd

Kindly note the recorded Kd for DLGLPPGVQVGDLLRNEQTMGSLRQVYLLAVQANSITD (modifications not checked) [BSRF1-derived peptide 1] , which is 7.4 µM
